Parameter: % Peak IIa, Ab conc. 50 nM. Scope: all listed entries.
# Tested System: Relipidated TF (UniProt P13726 33-295, limits assumed)
# Assay Notes: cell-based or functional assay
Express the result in % but write the number alone.

Prompt: Quick one: % Peak IIa, Ab conc. 50 nM for 43B1 (antibody, IgG1, V domains shown) VH: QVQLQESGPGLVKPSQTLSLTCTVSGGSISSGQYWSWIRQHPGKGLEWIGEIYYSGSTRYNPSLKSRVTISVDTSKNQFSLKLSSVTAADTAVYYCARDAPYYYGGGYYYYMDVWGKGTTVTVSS VL: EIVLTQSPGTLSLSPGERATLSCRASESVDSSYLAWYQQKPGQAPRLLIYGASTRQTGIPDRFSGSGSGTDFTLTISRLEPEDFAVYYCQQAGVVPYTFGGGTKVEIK ?
Response: 72

Prompt: Moving on to 5G9 (humanized TF8-5G9, CNTO 860) (antibody, V domains shown) VH: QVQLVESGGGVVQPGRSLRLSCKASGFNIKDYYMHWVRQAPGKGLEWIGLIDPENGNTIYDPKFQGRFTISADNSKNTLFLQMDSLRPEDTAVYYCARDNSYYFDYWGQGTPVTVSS VL: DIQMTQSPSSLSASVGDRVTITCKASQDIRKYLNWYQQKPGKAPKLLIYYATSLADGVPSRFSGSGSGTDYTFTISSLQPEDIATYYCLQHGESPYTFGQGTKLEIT
Response: 8

Prompt: Moving on to 39A (antibody, IgG1, V domains shown) VH: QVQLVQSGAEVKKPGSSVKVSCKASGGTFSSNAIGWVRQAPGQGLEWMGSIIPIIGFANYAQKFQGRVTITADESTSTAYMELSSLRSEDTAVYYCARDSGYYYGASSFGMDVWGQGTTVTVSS VL: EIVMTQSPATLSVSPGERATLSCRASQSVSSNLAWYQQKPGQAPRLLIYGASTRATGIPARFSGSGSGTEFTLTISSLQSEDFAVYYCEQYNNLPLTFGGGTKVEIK
Response: 11

Prompt: Moving on to TF-011 (antibody, V domains shown) VH: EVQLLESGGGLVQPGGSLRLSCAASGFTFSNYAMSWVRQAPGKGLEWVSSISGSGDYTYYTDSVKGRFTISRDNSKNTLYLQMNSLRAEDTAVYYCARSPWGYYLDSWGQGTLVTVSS VL: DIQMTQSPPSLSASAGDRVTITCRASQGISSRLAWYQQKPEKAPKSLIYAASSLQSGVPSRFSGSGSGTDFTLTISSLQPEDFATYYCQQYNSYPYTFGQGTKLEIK
Response: 12

Source listed as patent US20250361322A1.
